Consider compounds characterized by their HepSE_Combined Scores with Hepatotoxicity.
# print the numeric value only

Worked examples, 3 compounds total:
stdin: Report HepSE_Combined Scores under test system Hepatotoxicity for O=C1Nc2ccc(Cl)cc2C(c2ccccc2Cl)=NC1O (stereo not drawn) [LORAZEPAM] .
stdout: 2

stdin: Report HepSE_Combined Scores under test system Hepatotoxicity for CCOc1nc2cccc(C(=O)O)c2n1Cc1ccc(-c2ccccc2-c2nnn[nH]2)cc1 .
stdout: 2

stdin: Report HepSE_Combined Scores under test system Hepatotoxicity for COC(=O)C(c1ccccc1)C1CCCCN1 (stereo not drawn) [METHYLPHENIDATE] .
stdout: 1

More entries:
stdin: Report HepSE_Combined Scores under test system Hepatotoxicity for CCc1c(C)[nH]c2c1C(=O)C(CN1CCOCC1)CC2 (stereo not drawn) [MOLINDONE] .
stdout: 0

stdin: Report HepSE_Combined Scores under test system Hepatotoxicity for CO[C@H]1/C=C/O[C@@]2(C)Oc3c(C)c(O)c4c(O)c(c(/C=N/N5CCN(C6CCCC6)CC5)c(O)c4c3C2=O)NC(=O)/C(C)=C\C=C\[C@H](C)[C@H](O)[C@@H](C)[C@@H](O)[C@@H](C)[C@H](OC(C)=O)[C@@H]1C [RIFAPENTINE] .
stdout: 2

stdin: Report HepSE_Combined Scores under test system Hepatotoxicity for Clc1ccc(COC(Cn2ccnc2)c2ccc(Cl)cc2Cl)cc1 (stereo not drawn) [ECONAZOLE] .
stdout: 0

stdin: Report HepSE_Combined Scores under test system Hepatotoxicity for CN(C)CCCC1(c2ccc(F)cc2)OCc2cc(C#N)ccc21 (stereo not drawn) [CITALOPRAM] .
stdout: 7

stdin: Report HepSE_Combined Scores under test system Hepatotoxicity for C[C@H](O)C(=O)Nc1c(I)c(C(=O)NC(CO)CO)c(I)c(C(=O)NC(CO)CO)c1I [IOPAMIDOL] .
stdout: 0

====

Consider compounds characterized by their HepSE_elevated liver function tests with Hepatotoxicity.
# print the numeric value only

stdin: Answer with the recorded HepSE_elevated liver function tests of CC(=O)O[C@H]1C[C@@H]2CC[C@@H]3[C@H](CC[C@@]4(C)[C@H]3C[C@H]([N+]3(C)CCCCC3)[C@@H]4OC(C)=O)[C@@]2(C)C[C@@H]1N1CCCCC1 [VECURONIUM] only.
stdout: 0

stdin: Answer with the recorded HepSE_elevated liver function tests of CCOC(=O)C1=C(C)NC(C)=C(C(=O)OC)C1c1cccc(Cl)c1Cl (centres undefined) [FELODIPINE] only.
stdout: 0

More entries:
stdin: Answer with the recorded HepSE_elevated liver function tests of CN(C)CC(c1ccc(O)cc1)C1(O)CCCCC1 (centres undefined) [DESVENLAFAXINE] only.
stdout: 0

stdin: Answer with the recorded HepSE_elevated liver function tests of CCOC(=O)c1cncn1[C@H](C)c1ccccc1 [ETOMIDATE] only.
stdout: 0

stdin: Answer with the recorded HepSE_elevated liver function tests of Cn1c(=O)c2[nH]cnc2n(C)c1=O.O [THEOPHYLLINE] only.
stdout: 0

stdin: Answer with the recorded HepSE_elevated liver function tests of Nc1ncnc2c1ncn2[C@@H]1O[C@H](COP(=O)(S)S)[C@@H](O)[C@H]1O only.
stdout: 1

stdin: Answer with the recorded HepSE_elevated liver function tests of N#Cc1cc(NC(=O)C(=O)O)c(Cl)c(NC(=O)C(=O)O)c1 [LODOXAMIDE] only.
stdout: 0

stdin: Answer with the recorded HepSE_elevated liver function tests of Cc1[nH]c(=O)c(C#N)cc1-c1ccncc1 [MILRINONE] only.
stdout: 0

stdin: Answer with the recorded HepSE_elevated liver function tests of O=P(O)(O)C(O)(Cc1cccnc1)P(=O)(O)O [RISEDRONIC ACID] only.
stdout: 0

====

Consider compounds characterized by their HepSE_jaundice with Hepatotoxicity.
# print the numeric value only

Worked examples, 3 compounds total:
stdin: Answer with the recorded HepSE_jaundice of N=C(N)NC(=O)Cc1c(Cl)cccc1Cl only.
stdout: 0

stdin: Answer with the recorded HepSE_jaundice of O=C1OC2(c3ccc(O)cc3Oc3cc(O)ccc32)c2ccccc21 only.
stdout: 0

stdin: Answer with the recorded HepSE_jaundice of CC[C@H]1OC(=O)[C@H](C)[C@@H](O[C@H]2C[C@@](C)(OC)[C@@H](O)[C@H](C)O2)[C@H](C)[C@@H](O[C@@H]2O[C@H](C)C[C@H](N(C)C)[C@H]2O)[C@](C)(O)C[C@@H](C)C(=O)[C@H](C)[C@@H](O)[C@]1(C)O only.
stdout: 0

More entries:
stdin: Answer with the recorded HepSE_jaundice of CCCCCCCC(=O)CC[C@@H]1[C@@H](C/C=C\CCCC(=O)O)[C@@H](O)C[C@H]1O only.
stdout: 0

stdin: Answer with the recorded HepSE_jaundice of Clc1ccc(COC(Cn2ccnc2)c2ccc(Cl)cc2Cl)c(Cl)c1 (stereo not given) only.
stdout: 0

stdin: Answer with the recorded HepSE_jaundice of COc1ccc2cc(CCC(C)=O)ccc2c1 only.
stdout: 1

stdin: Answer with the recorded HepSE_jaundice of C[C@H]1[C@H](NC(=O)/C(=N\OC(C)(C)C(=O)O)c2csc(N)n2)C(=O)N1S(=O)(=O)O only.
stdout: 1

stdin: Answer with the recorded HepSE_jaundice of COc1ccc(C(CN(C)C)C2(O)CCCCC2)cc1 (stereo not given) only.
stdout: 1

stdin: Answer with the recorded HepSE_jaundice of CC(=O)[C@@]1(O)CC[C@H]2[C@@H]3C=C(Cl)C4=CC(=O)[C@@H]5C[C@@H]5[C@]4(C)[C@H]3CC[C@@]21C only.
stdout: 1

stdin: Answer with the recorded HepSE_jaundice of COc1ccc2[nH]c([S+]([O-])Cc3ncc(C)c(OC)c3C)nc2c1 (stereo not given) only.
stdout: 1

====

Consider molecules characterized by their HepSE_Combined Scores with Hepatotoxicity.
# print the numeric value only

Worked examples, 3 molecules total:
stdin: Report HepSE_Combined Scores under test system Hepatotoxicity for CN(C)CCCOc1nn(Cc2ccccc2)c2ccccc12 .
stdout: 0

stdin: Report HepSE_Combined Scores under test system Hepatotoxicity for CCCOc1ccc(C(=O)OCCN(CC)CC)cc1N .
stdout: 0

stdin: Report HepSE_Combined Scores under test system Hepatotoxicity for CC(=O)O[C@]1(C(C)=O)CC[C@H]2[C@@H]3C=C(C)C4=CC(=O)CC[C@]4(C)[C@H]3CC[C@@]21C [MEGESTROL ACETATE] .
stdout: 1

More entries:
stdin: Report HepSE_Combined Scores under test system Hepatotoxicity for CCOC(=O)[C@H](CCc1ccccc1)N[C@@H](C)C(=O)N1[C@H](C(=O)O)C[C@@H]2CCC[C@@H]21 .
stdout: 4

stdin: Report HepSE_Combined Scores under test system Hepatotoxicity for CNCCC(Oc1ccc(C(F)(F)F)cc1)c1ccccc1 (stereo not given) .
stdout: 8

stdin: Report HepSE_Combined Scores under test system Hepatotoxicity for CCOC(=O)[C@H](CCc1ccccc1)N[C@H]1CCCN2CCC[C@@H](C(=O)O)N2C1=O .
stdout: 1

stdin: Report HepSE_Combined Scores under test system Hepatotoxicity for O=c1[nH]cnc2c1ncn2[C@H]1CC[C@@H](CO)O1 .
stdout: 4

stdin: Report HepSE_Combined Scores under test system Hepatotoxicity for COc1ccc(C(=O)Nc2ccccc2CCC2CCCCN2C)cc1 (stereo not given) [ENCAINIDE] .
stdout: 2

stdin: Report HepSE_Combined Scores under test system Hepatotoxicity for CC(CCc1ccc(O)cc1)NCCc1ccc(O)c(O)c1 (stereo not given) .
stdout: 0

====

Consider molecules characterized by their HepSE_cirrhosis with Hepatotoxicity.
# print the numeric value only

Worked examples, 3 molecules total:
stdin: Report HepSE_cirrhosis under test system Hepatotoxicity for CC(=O)N(CC(O)CN(C(C)=O)c1c(I)c(C(=O)NCC(O)CO)c(I)c(C(=O)NCC(O)CO)c1I)c1c(I)c(C(=O)NCC(O)CO)c(I)c(C(=O)NCC(O)CO)c1I (centres undefined) [IODIXANOL] .
stdout: 0

stdin: Report HepSE_cirrhosis under test system Hepatotoxicity for CCN(CC)CCNC(=O)c1cc(Cl)c(N)cc1OC [METOCLOPRAMIDE] .
stdout: 0

stdin: Report HepSE_cirrhosis under test system Hepatotoxicity for CC(C)NCC(O)c1ccc(NS(C)(=O)=O)cc1 (centres undefined) [SOTALOL] .
stdout: 0

// moving on: another record for HepSE_cirrhosis
stdin: Report HepSE_cirrhosis under test system Hepatotoxicity for COc1ccc(C[C@@H]2c3cc(OC)c(OC)cc3CC[N@+]2(C)CCC(=O)OCCCCCOC(=O)CC[N@@+]2(C)CCc3cc(OC)c(OC)cc3[C@H]2Cc2ccc(OC)c(OC)c2)cc1OC .
stdout: 0

====

Consider compounds characterized by their HepSE_Combined Scores with Hepatotoxicity.
# print the numeric value only

Worked examples, 5 compounds total:
stdin: Answer with the recorded HepSE_Combined Scores of CC(C)(C#N)c1cc(Cn2cncn2)cc(C(C)(C)C#N)c1 only.
stdout: 2

stdin: Answer with the recorded HepSE_Combined Scores of CNCC(O)c1ccc(OC(=O)C(C)(C)C)c(OC(=O)C(C)(C)C)c1 (configuration not stated) only.
stdout: 0

stdin: Answer with the recorded HepSE_Combined Scores of C=CCN1C[C@H](C(=O)N(CCCN(C)C)C(=O)NCC)C[C@@H]2c3cccc4[nH]cc(c34)C[C@H]21 only.
stdout: 1

stdin: Answer with the recorded HepSE_Combined Scores of COC(=O)[C@@H]1CC2=CC(=O)CC[C@]2(C)[C@@]23O[C@@H]2C[C@@]2(C)[C@@H](CC[C@@]24CCC(=O)O4)[C@H]13 only.
stdout: 1

stdin: Answer with the recorded HepSE_Combined Scores of CC(C)[C@H](N)C(=O)OCCOCn1cnc2c(=O)[nH]c(N)nc21 only.
stdout: 1

More entries:
stdin: Answer with the recorded HepSE_Combined Scores of CN1C[C@H](C(=O)N[C@]2(C)O[C@@]3(O)[C@@H]4CCCN4C(=O)[C@H](Cc4ccccc4)N3C2=O)C=C2c3cccc4[nH]cc(c34)C[C@H]21 only.
stdout: 0

stdin: Answer with the recorded HepSE_Combined Scores of COCCOC(=O)C1=C(C)NC(C)=C(C(=O)OC(C)C)C1c1cccc([N+](=O)[O-])c1 (configuration not stated) only.
stdout: 2
